Tested on: NEO2AΔA (RNA, aptamer) CACUGCAGUCCGAAAGGGCCAGUG
measurement notes: ITC
experimental conditions: 13.5 mM NaCl, 150 mM KCl, 0.12 mM MgCl2, 0.1 mM MgSO4, 120 nM CaCl2; Buffer A: 20 mM HEPES, phosphate, pH 7.3, 25 °C
The reader will find reported Kd values listed item by item below.
API: value field is a number in µM; no unit string.

Solved cases below.
>>> reported_value("NC[C@@H]1O[C@H](O[C@H]2[C@@H](O)[C@H](O[C@@H]3[C@@H](O)[C@H](N)C[C@H](N)[C@H]3O[C@H]3O[C@H](CN)[C@@H](O)[C@H](O)[C@H]3N)O[C@@H]2CO)[C@H](N)[C@@H](O)[C@@H]1O")
0.17
>>> reported_value("CN[C@@H]1[C@@H](O)[C@@H](O[C@@H]2[C@@H](O)[C@H](O[C@H]3OC(CN)=CC[C@H]3N)[C@@H](N)C[C@H]2N)OC[C@]1(C)O")
4.9
>>> reported_value("NC[C@H]1O[C@H](O[C@H]2[C@H](O)[C@@H](O[C@H]3O[C@H](CO)[C@@H](O)[C@H](N)[C@H]3O)[C@H](N)C[C@@H]2N)[C@H](N)C[C@@H]1O")
6.3

Prompt: Entry NC[C@H]1O[C@H](O[C@H]2[C@H](O[C@@H]3O[C@H](CO)[C@@H](O)[C@H]3O)[C@@H](O)[C@H](N)C[C@@H]2N)[C@H](N)[C@@H](O)[C@@H]1O has what Kd?
Response: 2.3

###

The reader will find reported Kd values listed item by item below.
System: NEO2A (RNA, aptamer) CACUGCAGUCCGAAAAGGGCCAGUG
measurement notes: ITC
experimental conditions: 13.5 mM NaCl, 150 mM KCl, 0.12 mM MgCl2, 0.1 mM MgSO4, 120 nM CaCl2; Buffer A: 20 mM HEPES, phosphate, pH 7.3, 25 °C
API: value field is a number in µM; no unit string.

>>> reported_value("NC[C@H]1O[C@H](O[C@H]2[C@H](O)[C@@H](O[C@H]3O[C@H](CO)[C@@H](O)[C@H](N)[C@H]3O)[C@H](N)C[C@@H]2N)[C@H](O)[C@@H](O)[C@@H]1O")
26

Moving on to the next compound.
Prompt: Entry NC[C@@H]1O[C@H](O[C@H]2[C@@H](O)[C@H](O[C@@H]3[C@@H](O)[C@H](N)C[C@H](N)[C@H]3O[C@H]3O[C@H](CN)[C@@H](O)[C@H](O)[C@H]3N)O[C@@H]2CO)[C@H](N)[C@@H](O)[C@@H]1O has what Kd?
Response: 0.25

###

System: NEO2A (RNA, aptamer) CACUGCAGUCCGAAAAGGGCCAGUG
measurement notes: ITC
experimental conditions: 13.5 mM NaCl, 150 mM KCl, 0.12 mM MgCl2, 0.1 mM MgSO4, 120 nM CaCl2; Buffer A: 20 mM HEPES, phosphate, pH 7.3, 25 °C
readout kind: Kd (µM)
API: value field is a number in µM; no unit string.

>>> reported_value("NC[C@H]1O[C@H](O[C@H]2[C@H](O)[C@@H](O[C@H]3O[C@H](CO)[C@@H](O)[C@H](N)[C@H]3O)[C@H](N)C[C@@H]2N)[C@H](N)[C@@H](O)[C@@H]1O")
0.25
>>> reported_value("NC[C@@H]1O[C@H](O[C@H]2[C@@H](O)[C@H](O[C@@H]3[C@@H](O)[C@H](N)C[C@H](N)[C@H]3O[C@H]3O[C@H](CO)[C@@H](O)[C@H](O)[C@H]3N)O[C@@H]2CO)[C@H](N)[C@@H](O)[C@@H]1O")
1.6

Prompt: Entry NC[C@H]1O[C@H](O[C@H]2[C@H](O)[C@@H](O[C@H]3O[C@H](CO)[C@@H](O)[C@H](N)[C@H]3O)[C@H](N)C[C@@H]2N)[C@H](N)C[C@@H]1O has what Kd?
Response: 0.40

Prompt: Entry CN[C@@H]1[C@@H](O)[C@@H](O[C@@H]2[C@@H](O)[C@H](O[C@H]3OC(CN)=CC[C@H]3N)[C@@H](N)C[C@H]2N)OC[C@]1(C)O has what Kd?
Response: 4.9

Entry source: paper PMC6943582
